Tested on: LATS1;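 further: KINOMEscan kinase panel screen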
SETTINGS: concentration: 1 μM, replicates: in singlicate; n = 1
Item-by-item account of %Inh
Give the number; % is assumed, so skip it.

Here's what some known entries look like.
COc1ccc(NC(=O)Nc2ccc(C)c(-c3ccc(C(=O)Nc4ccncc4)cc3)c2)cc1 : 0
COC(=O)c1cccc(NC(=O)NCCNc2ccnc(Nc3ccc(F)cc3)n2)c1 : 0
COc1cc2c(Nc3cccc(NC(=O)c4ccccc4)c3)ncnc2cc1OCCCN1CCOCC1 : 0
CSc1ccc(NC2=C(c3ccccc3Cl)C(=O)NC2=O)cc1 : 5
Cn1ccc2ncnc(Oc3ccc(NC(=O)Nc4cccnc4)c(Cl)c3)c21 : 23
Fc1ccc(Nc2nccc(-c3c(-c4ccc(Cl)cc4)nn4ncccc34)n2)cc1F : 11

Give %Inh (LATS1) of the following compound: CN1CCC(n2cnc(-c3ccc(F)cc3)c2-c2ccnc(NC3CCNCC3)n2)CC1 0

Give %Inh (LATS1) of the following compound: Fc1cccc(COc2ccc(Nc3ncnc4sc(-c5ccc[nH]5)cc34)cc2Cl)c1 9

Give %Inh (LATS1) of the following compound: Fc1ccc(-c2ncn(CCCNCc3ccccc3)c2-c2ccncc2)cc1 30
